Cited source for all entries: patent US20110009453A1

Molecular target: human S1P3 receptor (Homo sapiens)
Construct: expressed in transfected cells
Sequence (Q99500 whole entry): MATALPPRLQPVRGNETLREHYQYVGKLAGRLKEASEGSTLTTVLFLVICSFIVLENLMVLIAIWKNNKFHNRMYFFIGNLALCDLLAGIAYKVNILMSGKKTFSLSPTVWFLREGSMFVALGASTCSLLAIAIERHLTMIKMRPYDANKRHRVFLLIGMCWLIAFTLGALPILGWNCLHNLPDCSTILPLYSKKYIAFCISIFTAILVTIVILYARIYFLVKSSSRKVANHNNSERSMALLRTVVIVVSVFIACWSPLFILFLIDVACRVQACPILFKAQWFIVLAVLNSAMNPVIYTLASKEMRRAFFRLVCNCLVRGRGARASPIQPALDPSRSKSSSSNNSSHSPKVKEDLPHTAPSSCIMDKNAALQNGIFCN
Test: FLIPR assay in T24 cells stably expressing the human S1P3 receptor
Assay type: cell-based
test.readout: IC50

Known results for molecules:
Data request: Which measured IC50 value corresponds to "CCOc1ccc2c(C(=O)NCc3ccc(F)c(F)c3)c(C(C)C)n(Cc3ccccc3)c2c1" ?
Data returned: 19 nM

Data request: Which measured IC50 value corresponds to "CC(C)Oc1ccc2c(C(=O)NCc3ccc(F)c(F)c3)c(C(C)C)n(Cc3ccccc3)c2c1" ?
Data returned: 6 nM

Data request: Which measured IC50 value corresponds to "CC(C)c1c(C(=O)NCc2ccc(F)c(F)c2)c2ccccc2n1Cc1ccccc1" ?
Data returned: 209 nM

Continuing:
Data request: Which measured IC50 value corresponds to "CC(C)c1c(C(=O)NCc2ccc(F)c(F)c2)c2cc(O)ccc2n1Cc1ccccc1" ?
Data returned: 35 nM

Data request: Which measured IC50 value corresponds to "CCCOc1ccc2c(C(=O)NCc3ccc(F)c(F)c3)c(C(C)C)n(Cc3ccccc3)c2c1" ?
Data returned: 5 nM
